# System: MDA-MB-231
# assay procedure: Cytotoxicity against human MDA-MB-231 cells assessed as reduction in cell viability after 48 hrs by MTT assay
# Format: functional, cell-based
# stated conditions: Homo sapiens, MDA-MB-231, 48 h
Below, each entry is listed alongside its reported pIC50.
Quick note: pIC50 means taking -log10 of the concentration in moles per liter.

Q: Read off the recorded pIC50 for "COc1ccc(NC(=S)Nc2cc(OC)c3cc2C[C@H]2c4c(cc(OC)c(OC)c4Oc4cc5c(cc4OC)CCN(C)[C@H]5Cc4ccc(cc4)O3)CCN2C)cc1"
Ans: 5.13

Next:
Q: Read off the recorded pIC50 for "COc1cc(NC(=O)Nc2ccc(OC(F)(F)F)cc2)c2cc1Oc1ccc(cc1)C[C@H]1c3cc(c(OC)cc3CCN1C)Oc1c(OC)c(OC)cc3c1[C@H](C2)N(C)CC3"
Ans: 5.31

Q: Read off the recorded pIC50 for "O=c1[nH]cc(F)c(=O)[nH]1"
Ans: 4.75

----------
# Tested on: MDA-MB-231
# assay procedure: Cytotoxicity against human MDA-MB-231 cells assessed as reduction in cell viability after 48 hrs by MTT assay
# Type: functional, cell-based
# stated conditions: mda-mb-231
Below, each entry is listed alongside its reported IC50.
Give a bare numeral; the unit µM is implied.

Q: Read off the recorded IC50 for "CCCCNC(=O)Nc1cc(OC)c2cc1C[C@H]1c3c(cc(OC)c(OC)c3Oc3cc4c(cc3OC)CCN(C)[C@H]4Cc3ccc(cc3)O2)CCN1C"
Ans: 5.28

Q: Read off the recorded IC50 for "COc1cc(NC(=O)Nc2ccc(F)cc2)c2cc1Oc1ccc(cc1)C[C@H]1c3cc(c(OC)cc3CCN1C)Oc1c(OC)c(OC)cc3c1[C@H](C2)N(C)CC3"
Ans: 3.06

Q: Read off the recorded IC50 for "COc1cc(NC(=S)Nc2ccc(F)cc2)c2cc1Oc1ccc(cc1)C[C@H]1c3cc(c(OC)cc3CCN1C)Oc1c(OC)c(OC)cc3c1[C@H](C2)N(C)CC3"
Ans: 1.56

Q: Read off the recorded IC50 for "COc1ccc2cc1Oc1ccc(cc1)C[C@H]1c3cc(c(OC)cc3CCN1C)Oc1c(OC)c(OC)cc3c1[C@H](C2)N(C)CC3"
Ans: 13.6

Let's switch to this molecule now.
Q: Read off the recorded IC50 for "CCCCNC(=S)Nc1cc(OC)c2cc1C[C@H]1c3c(cc(OC)c(OC)c3Oc3cc4c(cc3OC)CCN(C)[C@H]4Cc3ccc(cc3)O2)CCN1C"
Ans: 3.24

----------
# assay procedure: Cytotoxicity against human WM9 cells assessed as reduction in cell viability after 48 hrs by MTT assay
# Format: functional, cell-based
# stated conditions: Homo sapiens, WM9, 48 h
Below, each entry is listed alongside its reported IC50.
Give a bare numeral; the unit µM is implied.

The following molecules have reported results that may help.
Q: Read off the recorded IC50 for "COc1cc(NC(=O)Nc2ccc(C)cc2)c2cc1Oc1ccc(cc1)C[C@H]1c3cc(c(OC)cc3CCN1C)Oc1c(OC)c(OC)cc3c1[C@H](C2)N(C)CC3"
Ans: 5.13

Q: Read off the recorded IC50 for "CCCNC(=O)Nc1cc(OC)c2cc1C[C@H]1c3c(cc(OC)c(OC)c3Oc3cc4c(cc3OC)CCN(C)[C@H]4Cc3ccc(cc3)O2)CCN1C"
Ans: 4.83

Q: Read off the recorded IC50 for "COc1cc(NC(=O)NC2CCCC2)c2cc1Oc1ccc(cc1)C[C@H]1c3cc(c(OC)cc3CCN1C)Oc1c(OC)c(OC)cc3c1[C@H](C2)N(C)CC3"
Ans: 6.45

Next:
Q: Read off the recorded IC50 for "COc1cc(NC(=O)Nc2ccc(Cl)c(C(F)(F)F)c2)c2cc1Oc1ccc(cc1)C[C@H]1c3cc(c(OC)cc3CCN1C)Oc1c(OC)c(OC)cc3c1[C@H](C2)N(C)CC3"
Ans: 3.1

Q: Read off the recorded IC50 for "COc1cc(NC(=O)Nc2cccc(Cl)c2)c2cc1Oc1ccc(cc1)C[C@H]1c3cc(c(OC)cc3CCN1C)Oc1c(OC)c(OC)cc3c1[C@H](C2)N(C)CC3"
Ans: 3.16

Q: Read off the recorded IC50 for "COc1cc(NC(=O)Nc2cccc3ccccc23)c2cc1Oc1ccc(cc1)C[C@H]1c3cc(c(OC)cc3CCN1C)Oc1c(OC)c(OC)cc3c1[C@H](C2)N(C)CC3"
Ans: 3.93
